readout.kind: melting point (°C)

molecule	readout.kind	units.symbol	result
Cc1cc(-c2ncn3c(C(F)(F)F)cc(-c4ccc(Cl)c(C)c4)nc23)ccn1 [Example 8.21]	melting point	°C	246
Cc1cc(-c2cnn3c(C(F)(F)F)cc(-c4ccc(Br)cc4)nc23)ccn1 [Example 4.56]	melting point	°C	226
CCOc1cc(-c2cc(C(F)(F)F)n3ncc(-c4ccncc4)c3n2)ccc1C(F)(F)F [Example 4.47]	melting point	°C	251
FC(F)(F)c1ccc(-c2cc(C(F)(F)F)n3ncc(-c4ccncc4)c3n2)cc1C(F)(F)F [Example 4.53]	melting point	°C	209
Fc1cc(-c2cc(C(F)(F)F)n3ncc(-c4cccnc4)c3n2)ccc1C(F)(F)F [Example 4.18]	melting point	°C	162
Cc1cc(-c2ncn3c(C(F)(F)F)cc(-c4ccc(C(F)(F)F)c(C(F)(F)F)c4)nc23)ccn1 [Example 8.35]	melting point	°C	218
Cc1cc(-c2cnn3c(C(F)(F)F)cc(-c4ccc(Cl)cc4)nc23)cc(C)n1 [Example 4.19]	melting point	°C	256
FC(F)(F)c1cccc(-c2cc(C(F)(F)F)n3ncc(-c4ccncc4)c3n2)c1 [Example 4.16]	melting point	°C	241
Cc1cc(-c2cc(C(F)(F)F)n3ncc(C#N)c3n2)ccc1Cl [Example 1.15]	melting point	°C	216
Cc1cc(-c2cc(C(F)(F)F)n3nc(CC#N)c(C#N)c3n2)ccc1Cl [Example 3.2]	melting point	°C	238
Cc1cc(-c2cnn3c(C(F)(F)F)cc(-c4ccc(Cl)c(Cl)c4)nc23)ccn1 [Example 4.32]	melting point	°C	275
FC(F)(F)c1cc(-c2ccc(Cl)c(Cl)c2)nc2c(-c3ccncc3)cnn12 [Example 4.10]	melting point	°C	260
Fc1ccc(-c2cc(C(F)(F)F)n3ncc(-c4ccncc4)c3n2)cc1Cl [Example 4.7]	melting point	°C	265
Fc1cc(-c2cc(C(F)(F)F)n3cnc(-c4ccncc4)c3n2)ccc1C(F)(F)F [Example 8.15]	melting point	°C	267
Cc1cc(-c2cc(C(F)(F)F)n3ncc(-c4ccnc(CO)c4)c3n2)ccc1C(F)(F)F [Example 6.2]	melting point	°C	231
N#CCc1nn2c(C(F)(F)F)cc(-c3ccc(F)c(Cl)c3)nc2c1C#N [Example 3.1]	melting point	°C	185
CCOc1cc(-c2cc(C(F)(F)F)n3cnc(-c4ccnc(C)c4)c3n2)ccc1C(F)(F)F [Example 8.31]	melting point	°C	177
Cc1ccc(-c2cc(C(F)(F)F)n3ncc(-c4cccnc4)c3n2)cc1C(F)(F)F [Example 4.26]	melting point	°C	182
N#Cc1cnn2c(C(F)(F)F)cc(-c3ccc(C(F)(F)F)c(F)c3)nc12 [Example 1.17]	melting point	°C	184
Cc1cc(-c2cc(C(F)(F)F)n3cnc(-c4cccnc4)c3n2)ccc1C(F)(F)F [Example 8.8]	melting point	°C	173
FC(F)(F)COc1ccc(-c2cc(C(F)(F)F)n3ncc(-c4ccncc4)c3n2)cc1C(F)(F)F [Example 4.43]	melting point	°C	247
Cc1cc(-c2ncn3c(C(F)(F)F)cc(-c4ccc(C(F)(F)F)cc4)nc23)ccn1 [Example 8.24]	melting point	°C	257
Cc1cc(-c2cc(C(F)(F)F)n3ncc(-c4cccnc4)c3n2)ccc1C(F)(F)F [Example 4.36]	melting point	°C	177
Cc1cc(-c2ncn3c(C(F)(F)F)cc(-c4ccc(C(F)(F)F)c(C)c4)nc23)ccn1 [Example 8.29]	melting point	°C	243
Cc1cc(-c2ncn3c(C(F)(F)F)cc(-c4ccc(Br)cc4)nc23)ccn1 [Example 8.36]	melting point	°C	249
N#Cc1cnn2c(C(F)(F)F)cc(-c3ccccn3)nc12 [Example 1.20]	melting point	°C	208
FC(F)(F)c1cc(-c2ccc(Cl)cc2)nc2c(-c3ccncc3)ncn12 [Example 8.9]	melting point	°C	290
CCOc1ccc(-c2cc(C(F)(F)F)n3ncc(-c4ccnc(C)c4)c3n2)cc1C(F)(F)F [Example 4.44]	melting point	°C	250
COc1ccc(-c2cc(C(F)F)n3ncc(-c4ccncc4)c3n2)cc1 [Example 9.5]	melting point	°C	206
FC(F)(F)c1ccc(-c2cc(C(F)(F)F)n3cnc(-c4cccnc4)c3n2)cc1 [Example 8.6]	melting point	°C	231
Cc1cc(-c2cnn3c(C(F)(F)F)cc(-c4ccc(C(F)(F)F)cc4)nc23)cc(C)n1 [Example 4.23]	melting point	°C	257
Cc1ccc(-c2cc(C(F)(F)F)n3ncc(C#N)c3n2)cc1 [Example 1.2]	melting point	°C	121
N#Cc1ncn2c(C(F)(F)F)cc(-c3cccc(C(F)(F)F)c3)nc12 [Example 5.11]	melting point	°C	202
